Entry source: ChEMBL document CHEMBL5113527

assay: Ratio of drug concentration in brain to plasma of CD-1 mouse measured after 4 hrs by LC-MS/MS analysis; type: ADME; details: read-out: BPR
experimental_readout: Kp at 4 h
Reply: number alone, nothing else.

Write down Kp at 4 h measured for item CCNNC(=O)c1ccc(CN2c3ccccc3C=Cc3ccncc32)cc1
1.51

* * *

assay: Plasma concentration in CD-1 mouse at 20 mg/kg measured after 1 hrs by LC-MS/MS analysis; format: ADME, organism-based
experimental_readout: concentration at 1 h (ng/mL)
Give the value in ng/mL but do not write ng/mL after it.

Given CCNNC(=O)c1ccc(CN2c3ccccc3C=Cc3ccncc32)cc1 , respond with its concentration at 1 h.
5880
